Target: Concanavalin-A (Canavalia ensiformis) (UniProt P02866)
Sequence (P02866 whole entry, looked up): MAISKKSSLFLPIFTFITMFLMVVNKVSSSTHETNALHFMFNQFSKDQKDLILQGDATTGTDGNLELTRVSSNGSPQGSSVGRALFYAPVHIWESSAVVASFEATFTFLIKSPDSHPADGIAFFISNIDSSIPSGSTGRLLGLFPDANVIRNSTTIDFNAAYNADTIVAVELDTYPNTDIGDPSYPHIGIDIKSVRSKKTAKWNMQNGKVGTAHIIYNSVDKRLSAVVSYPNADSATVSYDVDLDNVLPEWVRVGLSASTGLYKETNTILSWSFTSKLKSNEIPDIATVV
Assay: ConA small-molecule binders, primary screen, artefact control for SMM control protein annotation, biochemical, small-molecule microarray, Alexa647 label, 635 nm (AID 1127);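 further: z combines 667 nm emission intensity with signal-to-noise across three replicate slides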
Conditions: ConA-A647 binding fluorescence, higher = more signal
Assign composite z-score to each entry below.
Provide a numeric answer; units are not to be included.

Note to self: composite z-score recorded for CCCCCN1CC=CC23O[C@@H]4/C=C\CCCOC(=O)C4[C@H]2C(=O)N(CCCCCCO)[C@@H]3C1=O (some centres undefined) was -0.74

Note to self: composite z-score recorded for CCC(CC)C(O)C1C=CC2C(=O)N(c3ccccc3)C(=O)C2N1Nc1ccc(C#N)cc1 (centres undefined) was 1.23

Note to self: composite z-score recorded for COCCCNC(=O)[C@@]1(CCC(=O)OC(C)(C)C)N=C(c2ccc(OCCCO)cc2)O[C@H]1c1ccccc1CN=[N+]=[N-] was 0.8

Note to self: composite z-score recorded for CCCCCCc1nc(CCCc2cc3c(c(CCCCCC)n2)[Si](C(C)C)(C(C)C)OC3)cc2c1[Si](C(C)C)(C(C)C)OC2 was -0.569

* * *

Target: Dihydroorotate dehydrogenase (quinone), mitochondrial (Plasmodium falciparum (isolate 3D7)) (UniProt Q08210)
Sequence (Q08210 whole entry, looked up): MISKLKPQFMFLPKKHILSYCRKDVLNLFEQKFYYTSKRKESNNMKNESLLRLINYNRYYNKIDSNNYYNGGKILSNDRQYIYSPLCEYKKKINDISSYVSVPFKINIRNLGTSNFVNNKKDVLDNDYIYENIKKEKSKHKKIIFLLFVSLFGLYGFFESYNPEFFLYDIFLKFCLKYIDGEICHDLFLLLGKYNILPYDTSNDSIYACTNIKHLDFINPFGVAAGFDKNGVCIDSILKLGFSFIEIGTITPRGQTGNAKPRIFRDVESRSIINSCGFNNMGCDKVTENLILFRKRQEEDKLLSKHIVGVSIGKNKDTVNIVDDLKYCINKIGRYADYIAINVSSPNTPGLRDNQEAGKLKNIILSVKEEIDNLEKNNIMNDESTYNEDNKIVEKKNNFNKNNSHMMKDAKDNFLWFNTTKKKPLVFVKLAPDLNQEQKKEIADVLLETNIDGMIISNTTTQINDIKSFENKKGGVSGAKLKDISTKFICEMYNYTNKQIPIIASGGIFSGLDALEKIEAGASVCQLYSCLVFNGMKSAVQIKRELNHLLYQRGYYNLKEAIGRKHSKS
Assay: PfDHODH enzyme inhibitors, primary screen, biochemical, C-terminal His tag, absorbance 600 nm (AID 1175);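 further: recombinant parasite enzyme with a five histidine tag at its C terminus; test concentration not given here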
Details: DCIP absorbance 600 nm, higher = more signal, called active from +8 up or from −8 down
Calls of active or inactive are those of the source.
Assign composite z-score to each entry below.

Note to self: composite z-score recorded for CCC[C@@H]1C=C(C(=O)O)[C@H](c2ccc(C)cc2)N1S(=O)(=O)c1ccc(C)cc1 was -0.0451 (inactive)

Note to self: composite z-score recorded for CCOC(=O)C1=C[C@@H](CC)N(S(=O)(=O)c2ccc(C)cc2)[C@H]1c1ccccc1 was -0.157 (inactive)

Note to self: composite z-score recorded for Cc1ccc(F)cc1S(=O)(=O)N[C@@H]1CCN(Cc2ccc(-c3ccccc3)cc2)C1 was -0.427 (inactive)

Note to self: composite z-score recorded for CCOC(=O)C1=CC[C@@H](c2ccccc2Cl)N(S(=O)(=O)c2ccc(C)cc2)C1 was -0.978 (inactive)

Note to self: composite z-score recorded for O=C(CCN1CCOCC1)c1cccc(O)c1 was -1.44 (inactive)

Note to self: composite z-score recorded for [N-]=[N+]=Nc1ccccc1C[C@]1(C(=O)NCCN2CCOCC2)N=C(c2ccc(OCCCO)cc2)O[C@H]1c1ccccc1 was -0.0351 (inactive)

Note to self: composite z-score recorded for C=CCC(OC(C)=O)[C@@H]1[C@@H](N(Cc2cc3ccccc3o2)C(=O)c2ccc(C)cc2)c2cc(OCCCO)ccc2N1C(=O)c1ccc2ccccc2c1 (stereo not given in full) was -0.375 (inactive)

Note to self: composite z-score recorded for COCCOC(=O)N1C(=O)[C@@]2(c3cc(C#CCNC(N)=O)ccc31)[C@H](C(=O)N1CCc3cc(OC)c(OC)cc3C1)[C@H]1C(=O)O[C@H](c3ccccc3)[C@H](c3ccccc3)N1[C@@H]2c1ccc(OCCO)cc1 was -0.232 (inactive)

Note to self: composite z-score recorded for COc1ccc(C(O)C2C=CC3C(=O)N(C)C(=O)C3N2Nc2ccccc2)cc1OCc1ccccc1 (stereo not given) was 0.669 (inactive)

Note to self: composite z-score recorded for COC(=O)C[C@H]1O[C@]2(C(=O)N(Cc3ccccc3)c3ccc(NC(C)=O)cc32)[C@@H](C)[C@@H]1[Si](C)(C)c1ccc(OC)cc1 was 1.45 (inactive)

Note to self: composite z-score recorded for CCOc1cc(C(O)C2C=CC3C(=O)N(c4ccccc4)C(=O)C3N2Nc2ccc([N+](=O)[O-])cc2)ccc1O (stereo not given) was 0.377 (inactive)

Note to self: composite z-score recorded for [N-]=[N+]=NCc1ccccc1C[C@@]1(C(=O)N2CCOCC2)N=C(c2ccc(OCCCO)cc2)O[C@@H]1c1ccccc1CN=[N+]=[N-] was -0.346 (inactive)

Note to self: composite z-score recorded for C=CCC(OC(C)=O)[C@@H]1[C@@H](N(Cc2cccc3ccccc23)C(=O)c2cccc3ccccc23)c2cc(OCCCO)ccc2N1C(=O)c1ccc2ccccc2n1 (stereo not given in full) was -0.747 (inactive)

Note to self: composite z-score recorded for COC(=O)c1ccc(C(O)C2C=CC3C(=O)N(C)C(=O)C3N2NC(=O)OC(C)(C)C)o1 (stereo not given) was -0.0658 (inactive)

Note to self: composite z-score recorded for COc1ccccc1CN1C(=O)c2ccccc2[C@@H](C(=O)NCCN2CCOCC2)[C@@H]1c1ccc(CO)cc1 was 0.249 (inactive)

Note to self: composite z-score recorded for Cc1ccc(S[C@]2(C(=O)NC3CC3)CC(=O)N(C3CCCCC3)[C@@H]2c2ccc(CO)cc2I)cc1 was 1.44 (inactive)

Note to self: composite z-score recorded for CN(C)CCCCCCNC(=O)[C@H]1C[C@H]2C(=O)N[C@@H](CCCCN)C(=O)N2[C@H]1c1ccc(O)cc1 was 1.31 (inactive)

Note to self: composite z-score recorded for CC(=O)NCCCC[C@@H]1NC(=O)[C@@H]2C[C@H](C(=O)NCCCCN(C)C)[C@H](c3ccc(O)cc3)N2C1=O was -0.0536 (inactive)

Note to self: composite z-score recorded for CCCCC(O)C1C=CC2C(=O)N(C3CCCCC3)C(=O)C2N1Nc1ccc(OC)cc1 (stereo not given) was 1.12 (inactive)

Note to self: composite z-score recorded for O=C1O[C@@H](c2ccccc2)[C@@H](c2ccccc2)N2[C@@H](c3ccccc3OCCO)[C@]3(C(=O)Nc4ccc(C#CC5(O)CCCCCC5)cc43)[C@@H](C(=O)Nc3nc4ccccc4s3)[C@H]12 was 0.18 (inactive)

Note to self: composite z-score recorded for COC(=O)[C@@]1(Cc2ccccc2)[C@H]2c3cc(C(=O)N4CCCC4)n(Cc4ccc(C)o4)c3C[C@H]2CN1C(=O)c1ccccc1 was -0.376 (inactive)

Note to self: composite z-score recorded for C=CCC(OC(C)=O)[C@@H]1[C@@H](N(Cc2cccc3ccccc23)C(=O)c2ccc(C)cc2)c2cc(OCCCO)ccc2N1C(=O)Cc1ccc(OC)cc1 (stereo not given in full) was -1.6 (inactive)

Note to self: composite z-score recorded for O=C/C=C/c1ccc2c(c1)OCO2 was -1.32 (inactive)

Note to self: composite z-score recorded for COC(=O)[C@@]1(Cc2ccccc2)[C@H]2c3cc(C(=O)N(C)C)n(Cc4c(-c5ccccc5)noc4C)c3C[C@H]2CN1C(=O)c1ccccc1 was -0.403 (inactive)

Note to self: composite z-score recorded for COc1ccc(C(=O)Nc2cccc(CN3C(=O)[C@]4(O[C@H](CC(=O)N5CCC[C@H]5CO)[C@@H]([Si](C)(C)c5ccc(OC)cc5)[C@@H]4C)c4ccccc43)c2)cc1 was -2.54 (inactive)

* * *

Experiment: small-molecule microarray binders of probe aNog, primary screen, biochemical, biotinylated probe, 635/667 nm fluorescence (AID 1115);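 further: probe is biotinylated aNog protein used at 0.15 µg/mL for 1 h at 4 C; z-score combines 667 nm fluorescence of each spot with its signal to noise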
Conditions: higher = more signal
observable: composite z-score
Provide a numeric answer; units are not to be included.

Note to self: composite z-score recorded for CC(C)N1C(=O)[C@@]2(c3ccc([N+](=O)[O-])cc3)CC(=O)N(CC34CC5CC(CC(C5)C3)C4)[C@@H]2c2ccc(CO)cc21 was 0.705

Note to self: composite z-score recorded for O=C(CS)NCCCCCCNC(=O)[C@H]1C[C@H]2C(=O)NCC(=O)N2[C@H]1c1ccc(O)cc1 was -0.379

Note to self: composite z-score recorded for Cc1cc(C)c(C(O)C2C=CC3C(=O)N(C)C(=O)C3N2Nc2ccccc2)c(C)c1 (stereo not given) was 1.45

Note to self: composite z-score recorded for O=C1N(CCS(=O)(=O)c2ccccc2)c2ccccc2C[C@@]12COC(c1ccc(OCCCO)cc1)=N2 was 0.69

Note to self: composite z-score recorded for C=CCC(OC(C)=O)[C@@H]1[C@@H](N(Cc2ccc(-c3ccccc3)cc2)C(=O)Cc2ccc(F)cc2)c2cc(OCCCO)ccc2N1C(=O)c1ccc2ccccc2n1 (stereo not given in full) was -0.395

* * *

Molecular target: Fibroblast growth factor 2 (Homo sapiens)
Test: FGF2 binders on small-molecule microarrays, primary screen, biochemical, small-molecule microarray, 635/667 nm fluorescence (AID 1133)
Conditions: small-molecule microarray binding, FGF2, fluorescence 635/667; higher = more signal
Mark not met for composite z-score values under 0.09, and met for everything at or above.

Hello, I need to know if CC(C)c1ccc(NN2C(C(O)c3c(F)cccc3Cl)C=CC3C(=O)N(c4ccccc4)C(=O)C32)cc1 (centres undefined) has measured composite z-score not below 0.09. Thanks!
not met

Hello, I need to know if [N-]=[N+]=NCc1ccccc1[C@@H]1OC(c2ccc(OCCCO)cc2)=N[C@]1(Cc1ccccc1)C(=O)N1CCCCC1 has measured composite z-score not below 0.09. Thanks!
met

Hello, I need to know if COc1ccc(CCNC(=O)[C@@H]2c3ccccc3C(=O)N(Cc3ccc(OC(F)(F)F)cc3)[C@H]2c2ccc(CO)cc2)cc1 has measured composite z-score not below 0.09. Thanks!
met

Hello, I need to know if COCC(=C=CC[C@@H](O)c1ccc(CO)o1)CCO has measured composite z-score not below 0.09. Thanks!
met

Hello, I need to know if C=CC[C@@H](OC(=O)Nc1ccc(OC)cc1)c1ccc(O)c2ccccc12 has measured composite z-score not below 0.09. Thanks!
met

Hello, I need to know if CN(C)CCCNC(=O)[C@@]1(Cc2ccccc2I)c2ccccc2C(=O)N(Cc2ccccc2C(F)(F)F)[C@H]1c1ccc(CO)cc1 has measured composite z-score not below 0.09. Thanks!
not met

Hello, I need to know if COCCCNC(=O)[C@@]1(CCC(=O)OC(C)(C)C)N=C(c2ccc(OCCCO)cc2)O[C@H]1c1ccccc1CN=[N+]=[N-] has measured composite z-score not below 0.09. Thanks!
met

Hello, I need to know if [N-]=[N+]=NCc1ccccc1C[C@]1(C(=O)NCCN2CCOCC2)N=C(c2ccc(OCCCO)cc2)O[C@H]1c1ccccc1N=[N+]=[N-] has measured composite z-score not below 0.09. Thanks!
not met

Hello, I need to know if O=C/C=C/c1ccc2c(c1)OCO2 has measured composite z-score not below 0.09. Thanks!
met

Hello, I need to know if CCOC(=O)C[C@H]1[C@H](OC(=O)c2ccc(C(=O)c3ccccc3)cc2)[C@@H](NC(=O)C2CCCCC2)c2cc(OCCCO)ccc2N1C(=O)c1ccccc1 has measured composite z-score not below 0.09. Thanks!
not met

Hello, I need to know if C[N+](C)(C)CCCCCCNC(=O)[C@H]1C[C@H]2C(=O)N3CCC[C@H]3C(=O)N2[C@H]1c1ccc(O)cc1 has measured composite z-score not below 0.09. Thanks!
met

Hello, I need to know if Cc1cc(C)c(C(O)C2C=CC3C(=O)N(C)C(=O)C3N2Nc2ccccc2)c(C)c1 (centres undefined) has measured composite z-score not below 0.09. Thanks!
not met

Hello, I need to know if O=C1OCCC=C[C@H]2OC34C=CCN(Cc5ccccc5)C(=O)[C@H]3N(CCCCCCO)C(=O)[C@@H]4C12 (some centres undefined) has measured composite z-score not below 0.09. Thanks!
not met

Hello, I need to know if O=C1O[C@H](c2ccccc2)[C@H](c2ccccc2)N2[C@H]1[C@@H](C(=O)Nc1nc3ccccc3s1)[C@]1(C(=O)Nc3ccccc31)[C@H]2c1ccc(O)cc1 has measured composite z-score not below 0.09. Thanks!
met

Hello, I need to know if COC(=O)[C@@]1(Cc2ccccc2)[C@H]2c3cc(C(=O)N(C)C)n(Cc4cc(C)n(C)n4)c3C[C@H]2CN1C(=O)c1ccccc1 has measured composite z-score not below 0.09. Thanks!
not met

Hello, I need to know if CC(=O)NCCCC[C@@H]1NC(=O)[C@@H]2C[C@H](C(=O)NCCCCCCNC(=O)CS)[C@H](c3ccc(O)cc3)N2C1=O has measured composite z-score not below 0.09. Thanks!
met

Hello, I need to know if COc1cc2c(cc1O)C(C)N(Cc1cccc(OC(F)(F)F)c1)CC2 (centres undefined) has measured composite z-score not below 0.09. Thanks!
not met

Hello, I need to know if COCCOC(=O)N1C(=O)[C@@]2(c3cc(C#CCC(C(=O)OC)C(=O)OC)ccc31)[C@H](c1ccc(O)cc1)N1[C@H](c3ccccc3)[C@H](c3ccccc3)OC(=O)[C@H]1[C@@H]2C(N)=O has measured composite z-score not below 0.09. Thanks!
met
